experimental details: Liver microsomal stability, human
Assay type: in vitro ADME
condition: pH 7.4; human liver microsomes, 0.5 mg/mL protein, 1 μM compound, NADPH; >80% remaining at 45 min denoted >140; read-out: Liver Microsomal Stability: t1/2 (min); human
Entries and their half-life
Supply the numeric figure in min, leaving out any unit text.

Request: Endpoint output: half-life of CCNc1cnc(-c2c(C(=O)N[C@H]3N=C(c4ccccc4)c4cccc(F)c4NC3=O)cnn2CC)c(F)c1 . Value?
Response: 42.9

Request: Endpoint output: half-life of CC(C)(C)n1cc(C(=O)N[C@H]2N=C(c3ccccc3)c3cccc(F)c3NC2=O)c(-c2ccc(NC3CC3)nc2F)n1 . Value?
Response: 253

====

experimental details: Liver microsomal stability, rat
Assay type: in vitro ADME
condition: pH 7.4; rat liver microsomes, 0.5 mg/mL protein, 1 μM compound, NADPH; >80% remaining at 45 min denoted >140; read-out: Liver Microsomal Stability: t1/2 (min); rat
measurement name: half-life
Record the result as number plus unit.

// below: answered molecules
1. O=C(N[C@H]1N=C(c2ccccc2)c2cccc(F)c2NC1=O)c1cn(C2CCOCC2)nc1-c1ccc(NC2CC2)nc1F | 127 min
2. CCn1cc(C(=O)N[C@H]2N=C(c3ccccc3)c3ccccc3NC2=O)c(-c2ccc(NC3CC3)nc2F)n1 | 46.3 min
3. CCn1ncc(C(=O)N[C@H]2N=C(c3ccccc3)c3ccccc3NC2=O)c1-c1ncc(NC2CC2)cc1F | 595 min

Turning now to a further record.
Request: Endpoint output: half-life of CN1CCC(n2ncc(C(=O)N[C@H]3N=C(c4ccccc4)c4cccc(F)c4NC3=O)c2-c2ccc(NC3CC3)nc2F)CC1 . Value?
Response: 116 min

====

experimental details: Dog pharmacokinetics in vivo
condition: plasma, male Beagle dogs, IV 0.5 mg/kg
measurement name: Vd (L/kg)
Supply the numeric figure in L/kg, leaving out any unit text.

1) CC(C)Nc1ccc(-c2c(C(=O)N[C@H]3N=C(c4ccccc4)c4cccc(F)c4NC3=O)cnn2C2CCOCC2)c(F)n1 | 1.4
2) O=C(N[C@H]1N=C(c2ccccc2)c2cccc(F)c2NC1=O)c1cnn(C2CCOCC2)c1-c1ccc(NC2CC2)nc1F | 1.3
3) CCNc1ccc(-c2c(C(=O)N[C@H]3N=C(c4ccccc4)c4cccc(F)c4NC3=O)cnn2C2CCOCC2)c(F)n1 | 0.86

Turning now to a further record.
Request: Endpoint output: Vd of CCn1ncc(C(=O)N[C@H]2N=C(c3ccccc3)c3ccccc3NC2=O)c1-c1ccc(NC2CC2)nc1F . Value?
Response: 0.79

====

Entries and their Cmax
experimental details: Rat pharmacokinetics in vivo
condition: rat, in vivo; male Sprague Dawley rats, doses 1 mg/kg (IV) and 10 mg/kg (PO)
Supply the numeric figure in ng/mL, leaving out any unit text.

1. CCn1cc(C(=O)N[C@H]2N=C(c3ccccc3)c3ccccc3NC2=O)c(-c2ccc(NC3CC3)nc2F)n1 [Example 25] | 1150
2. CCn1ncc(C(=O)N[C@H]2N=C(c3ccccc3)c3ccccc3NC2=O)c1-c1ccc(NC(C)C)nc1F [Example 3] | 199
3. O=C(N[C@H]1N=C(c2ccccc2)c2cccc(F)c2NC1=O)c1cn(C2CCOCC2)nc1-c1ccc(NC2CC2)nc1F [Example 32] | 452

Request: Endpoint output: Cmax of O=C(N[C@H]1N=C(c2ccccc2)c2ccccc2NC1=O)c1cnn(C2CCOCC2)c1-c1ccc(NC2CC2)nc1F [Example 20] . Value?
Response: 258

Request: Endpoint output: Cmax of CCNc1ccc(-c2c(C(=O)N[C@H]3N=C(c4ccccc4)c4cccc(F)c4NC3=O)cnn2C2CCOCC2)c(F)n1 [Example 24] . Value?
Response: 791

Request: Endpoint output: Cmax of CC(C)Nc1ccc(-c2c(C(=O)N[C@H]3N=C(c4ccccc4)c4ccccc4NC3=O)cnn2C2CCOCC2)c(F)n1 [Example 23] . Value?
Response: 930

====

experimental details: Liver microsomal stability, dog
Assay type: in vitro ADME
condition: pH 7.4; dog liver microsomes, 0.5 mg/mL protein, 1 μM compound, NADPH; >80% remaining at 45 min denoted >140; read-out: Liver Microsomal Stability: t1/2 (min); dog
Entries and their half-life
Supply the numeric figure in min, leaving out any unit text.

// below: answered compounds
1) O=C(N[C@H]1N=C(c2ccccc2)c2cccc(F)c2NC1=O)c1cn(C2CCC(F)(F)CC2)nc1-c1ccc(NC2CC2)nc1F | 90.9
2) CCNc1ccc(-c2c(C(=O)N[C@H]3N=C(c4ccccc4)c4ccccc4NC3=O)cnn2CC)c(F)n1 | 23.9
3) O=C(N[C@H]1N=C(c2ccccc2)c2ccccc2NC1=O)c1cnn(C2CCOCC2)c1-c1ccc(C2CC2)cc1F | 161
4) O=C(N[C@H]1N=C(c2ccccc2)c2ccccc2NC1=O)c1cn(C2CCOCC2)nc1-c1ccc(NC2CC2)nc1F | 65.7

Turning now to a further record.
Request: Endpoint output: half-life of O=C(N[C@H]1N=C(c2ccccc2)c2cccc(F)c2NC1=O)c1cnn(C2CCOCC2)c1-c1ccc(C2CC2)nc1F . Value?
Response: 110

====

Entries and their half-life
experimental details: Liver microsomal stability, dog
Assay type: in vitro ADME
condition: pH 7.4; dog liver microsomes, 0.5 mg/mL protein, 1 μM compound, NADPH; >80% remaining at 45 min denoted >140; read-out: Liver Microsomal Stability: t1/2 (min); dog
Supply the numeric figure in min, leaving out any unit text.

Request: Endpoint output: half-life of CCCNc1ccc(-c2nn(CC)cc2C(=O)N[C@H]2N=C(c3ccccc3)c3cccc(F)c3NC2=O)c(F)n1 [Example 28] . Value?
Response: 30.8

====

experimental details: Rat pharmacokinetics in vivo
condition: rat, in vivo; male Sprague Dawley rats, doses 1 mg/kg (IV) and 10 mg/kg (PO)
Define the label as y when Cmax is strictly less than 1000 ng/mL and as n in all remaining cases.

Sample answers from the record:
1. O=C(N[C@H]1N=C(c2ccccc2)c2cccc(F)c2NC1=O)c1cnn(C2COC2)c1-c1ccc(NC2CC2)nc1F | n
2. CC(C)(C)n1cc(C(=O)N[C@H]2N=C(c3ccccc3)c3cccc(F)c3NC2=O)c(-c2ccc(NC3CC3)nc2F)n1 | y
3. CC(C)Nc1ccc(-c2c(C(=O)N[C@H]3N=C(c4ccccc4)c4cccc(F)c4NC3=O)cnn2C2CCOCC2)c(F)n1 | n
4. CCn1cc(C(=O)N[C@H]2N=C(c3ccccc3)c3cccc(F)c3NC2=O)c(-c2ccc(NC3CC3)nc2F)n1 | n

Query compound follows.
Request: Identify whether the compound O=C(N[C@H]1N=C(c2ccccc2)c2cccc(F)c2NC1=O)c1cnn(C2CCOCC2)c1-c1ccc(NC2CC2)nc1F records Cmax below 1000 ng/mL.
Response: n

====

experimental details: Liver microsomal stability, dog
Assay type: in vitro ADME
condition: pH 7.4; dog liver microsomes, 0.5 mg/mL protein, 1 μM compound, NADPH; >80% remaining at 45 min denoted >140; read-out: Liver Microsomal Stability: t1/2 (min); dog
measurement name: half-life (min)
Supply the numeric figure in min, leaving out any unit text.

// below: answered compounds
1) CCNc1cnc(-c2c(C(=O)N[C@H]3N=C(c4ccccc4)c4ccccc4NC3=O)cnn2CC)c(F)c1 | 45.7
2) CCNc1ccc(-c2c(C(=O)N[C@H]3N=C(c4ccccc4)c4ccccc4NC3=O)cnn2C2CC2)c(F)n1 | 59.3
3) CCOc1nn(CC)c(-c2ccccc2F)c1C(=O)N[C@H]1N=C(c2ccccc2)c2cccc(F)c2NC1=O | 39

Turning now to a further record.
Request: Endpoint output: half-life of CCn1ncc(C(=O)N[C@H]2N=C(c3ccccc3)c3ccccc3NC2=O)c1-c1ccc(NC)nc1F . Value?
Response: 11.1

====

experimental details: Liver microsomal stability, human
Type: in vitro ADME
condition: pH 7.4; human liver microsomes, 0.5 mg/mL protein, 1 μM compound, NADPH; >80% remaining at 45 min denoted >140; read-out: Liver Microsomal Stability: t1/2 (min); human
Define the label as MET when half-life is strictly less than 90 min and as NOT MET in all remaining cases.

Sample answers from the record:
1. O=C(N[C@H]1N=C(c2ccccc2)c2cccc(F)c2NC1=O)c1cnn(C2CCOCC2)c1-c1ccc(C2CC2)cc1F | NOT MET
2. CCn1ncc(C(=O)N[C@H]2N=C(c3ccccc3)c3cccc(F)c3NC2=O)c1-c1cc(C2CC2)cnc1F | NOT MET
3. O=C(N[C@H]1N=C(c2ccccc2)c2ccccc2NC1=O)c1cnn(C2CCOCC2)c1-c1cc(C2CC2)cnc1F | NOT MET
4. CCNc1ccc(-c2c(C(=O)N[C@H]3N=C(c4ccccc4)c4ccccc4NC3=O)cnn2C2CCOCC2)c(F)n1 | NOT MET

Query compound follows.
Request: Identify whether the compound CCCNc1ccc(-c2nn(CC)cc2C(=O)N[C@H]2N=C(c3ccccc3)c3ccccc3NC2=O)c(F)n1 records half-life below 90 min.
Response: MET

# credit: patent US20220409629A1
